Hey, just so you know, these numbers are from ChEMBL document CHEMBL5365483.

Assay: in vivo
Conditions: BALB/c, mouse, iv, 5 mg/kg
Quantity Kind: AUC(0-inf) at 24 h (ng·h/mL)
Give bare numbers, in ng·h/mL.

Ask: # query: AUC(0-inf) at 24 h of entry CC(C)(O)CNc1nc(Nc2ccnc(C(F)(F)F)c2)nc(-c2cccc(C(F)(F)F)n2)n1 [ENASIDENIB]
Reply: 14000

* * *

Test: in vivo
Conditions: BALB/c, mouse, po, 25 mg/kg
Quantity Kind: half-life at 72 h (h)
Numbers only, in h.

Ask: What value of measured half-life at 72 h is listed for CC(C)(O)CNc1nc(Nc2ccnc(C(F)(F)F)c2)nc(-c2cccc(C(F)(F)F)n2)n1 ?
Reply: 6.98

* * *

Test: in vitro
Settings: human, liver microsomes
Kindly supply the reported CLint scaled at 1 h, 1 µM values for the records listed here.
Answer format: number, then unit.

smiles_string=CCOc1ccc(NC(C)=O)cc1 test_value="23.6 mL/min/kg"

Please turn your attention to the following entry.
Ask: Param item = O=C(O)Cc1ccccc1Nc1c(Cl)cccc1Cl ; retrieve measured CLint scaled at 1 h, 1 µM.
Reply: 302 mL/min/kg

* * *

Assay: in vitro
Conditions: mouse, liver microsomes
Quantity Kind: CLint scaled at 1 h, 1 µM (mL/min/kg)
Give bare numbers, in mL/min/kg.

smiles_string=O=C(O)Cc1ccccc1Nc1c(Cl)cccc1Cl quantity_kind="CLint scaled at 1 h, 1 µM" test_value=226

Please look at the following compound next.
Ask: Which CLint scaled at 1 h, 1 µM value belongs to CCOc1ccc(NC(C)=O)cc1 ?
Reply: 1590

* * *

Assay: in vivo
Conditions: BALB/c, mouse, po, 25 mg/kg
Quantity Kind: bioavailability at 72 h (%)
Numbers only, in %.

Ask: What does the record list as bioavailability at 72 h for CC(C)(O)CNc1nc(Nc2ccnc(C(F)(F)F)c2)nc(-c2cccc(C(F)(F)F)n2)n1 ?
Reply: 125

* * *

Experiment: in vivo
Conditions: BALB/c, mouse, iv, 5 mg/kg
Quantity Kind: clearance at 24 h

Ask: Recorded clearance at 24 h of CC(C)(O)CNc1nc(Nc2ccnc(C(F)(F)F)c2)nc(-c2cccc(C(F)(F)F)n2)n1 [ENASIDENIB] , please.
Reply: 5.99 mL/min/kg

* * *

Assay: in vivo
Settings: BALB/c, mouse, iv, 5 mg/kg
Quantity Kind: Cmax at 24 h (ng/mL)
Answers are plain numbers, in ng/mL.

Ask: Can you share its Cmax at 24 h? I mean this compound: CC(C)(O)CNc1nc(Nc2ccnc(C(F)(F)F)c2)nc(-c2cccc(C(F)(F)F)n2)n1
Reply: 2840

* * *

Assay: in vitro
Conditions: human, liver microsomes
Quantity Kind: half-life at 1 h, 1 µM (min)
Numbers only, in min.

smiles_string=CCOc1ccc(NC(C)=O)cc1 quantity_kind="half-life at 1 h, 1 µM" test_value=67.9

Ask: half-life at 1 h, 1 µM for O=C(O)Cc1ccccc1Nc1c(Cl)cccc1Cl ?
Reply: 5.3

* * *

Assay: in vivo
Details: BALB/c, mouse, po, 25 mg/kg
Quantity Kind: MRT at 72 h

Ask: Entry under review: CC(C)(O)CNc1nc(Nc2ccnc(C(F)(F)F)c2)nc(-c2cccc(C(F)(F)F)n2)n1 . Reported MRT at 72 h?
Reply: 7.45 h

* * *

Test: in vitro
Conditions: mouse, liver microsomes
Quantity Kind: half-life at 1 h, 1 µM (min)
One number for each entry, in min.

smiles_string=CCOc1ccc(NC(C)=O)cc1 quantity_kind="half-life at 1 h, 1 µM" test_value=3.4

Consider the additional compound presented here.
Ask: What half-life at 1 h, 1 µM value was documented for this compound, O=C(O)Cc1ccccc1Nc1c(Cl)cccc1Cl ?
Reply: 24.1

* * *

Experiment: in vivo
Settings: BALB/c, mouse, po, 25 mg/kg
Quantity Kind: AUC(0-inf) at 72 h
Kindly write the number and append the unit.

Ask: May I ask what AUC(0-inf) at 72 h has been recorded for CC(C)(O)CNc1nc(Nc2ccnc(C(F)(F)F)c2)nc(-c2cccc(C(F)(F)F)n2)n1 [ENASIDENIB] ?
Reply: 87600 ng·h/mL
